target: PI3Kγ (p101/p110γ protein) (Homo sapiens, UniProt P48736); construct: HA; test: PI3Kγ In Vitro Kinase Assay; conditions: purified recombinant p101/p110γ with G protein β1/γ2 subunits; 20 μM ATP, 25 μM PIP2; 20 minutes at room temperature
Sequence (P48736 whole entry, species assumed): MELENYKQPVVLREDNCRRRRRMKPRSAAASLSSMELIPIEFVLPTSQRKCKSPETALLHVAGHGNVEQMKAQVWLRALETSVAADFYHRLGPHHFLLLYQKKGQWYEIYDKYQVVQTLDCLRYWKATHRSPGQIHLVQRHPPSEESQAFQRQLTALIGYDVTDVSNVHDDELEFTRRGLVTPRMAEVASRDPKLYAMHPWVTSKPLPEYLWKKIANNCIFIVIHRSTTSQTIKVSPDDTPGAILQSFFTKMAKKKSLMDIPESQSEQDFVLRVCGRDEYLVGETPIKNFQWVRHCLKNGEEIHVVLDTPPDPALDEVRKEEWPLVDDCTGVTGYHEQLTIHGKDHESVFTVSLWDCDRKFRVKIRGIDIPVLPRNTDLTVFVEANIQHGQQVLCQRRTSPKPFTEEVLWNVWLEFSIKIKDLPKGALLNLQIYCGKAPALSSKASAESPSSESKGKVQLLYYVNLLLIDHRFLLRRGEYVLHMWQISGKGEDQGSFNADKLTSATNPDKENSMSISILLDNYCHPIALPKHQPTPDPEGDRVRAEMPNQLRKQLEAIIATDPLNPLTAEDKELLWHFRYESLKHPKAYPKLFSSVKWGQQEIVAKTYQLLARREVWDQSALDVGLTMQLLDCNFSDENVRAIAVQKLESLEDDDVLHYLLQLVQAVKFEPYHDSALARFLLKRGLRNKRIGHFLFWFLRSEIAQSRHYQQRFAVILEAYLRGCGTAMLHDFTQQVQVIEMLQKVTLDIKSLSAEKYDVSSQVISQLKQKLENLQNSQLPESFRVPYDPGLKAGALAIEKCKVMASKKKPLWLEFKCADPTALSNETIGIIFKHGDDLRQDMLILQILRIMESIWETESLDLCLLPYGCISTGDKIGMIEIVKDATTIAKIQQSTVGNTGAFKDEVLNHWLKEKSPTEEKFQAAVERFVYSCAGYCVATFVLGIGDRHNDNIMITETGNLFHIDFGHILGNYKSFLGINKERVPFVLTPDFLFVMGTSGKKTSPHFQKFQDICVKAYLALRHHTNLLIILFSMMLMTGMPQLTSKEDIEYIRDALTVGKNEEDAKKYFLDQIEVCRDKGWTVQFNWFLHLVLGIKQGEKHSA
Sequence (Q8WYR1 whole entry partner, species assumed): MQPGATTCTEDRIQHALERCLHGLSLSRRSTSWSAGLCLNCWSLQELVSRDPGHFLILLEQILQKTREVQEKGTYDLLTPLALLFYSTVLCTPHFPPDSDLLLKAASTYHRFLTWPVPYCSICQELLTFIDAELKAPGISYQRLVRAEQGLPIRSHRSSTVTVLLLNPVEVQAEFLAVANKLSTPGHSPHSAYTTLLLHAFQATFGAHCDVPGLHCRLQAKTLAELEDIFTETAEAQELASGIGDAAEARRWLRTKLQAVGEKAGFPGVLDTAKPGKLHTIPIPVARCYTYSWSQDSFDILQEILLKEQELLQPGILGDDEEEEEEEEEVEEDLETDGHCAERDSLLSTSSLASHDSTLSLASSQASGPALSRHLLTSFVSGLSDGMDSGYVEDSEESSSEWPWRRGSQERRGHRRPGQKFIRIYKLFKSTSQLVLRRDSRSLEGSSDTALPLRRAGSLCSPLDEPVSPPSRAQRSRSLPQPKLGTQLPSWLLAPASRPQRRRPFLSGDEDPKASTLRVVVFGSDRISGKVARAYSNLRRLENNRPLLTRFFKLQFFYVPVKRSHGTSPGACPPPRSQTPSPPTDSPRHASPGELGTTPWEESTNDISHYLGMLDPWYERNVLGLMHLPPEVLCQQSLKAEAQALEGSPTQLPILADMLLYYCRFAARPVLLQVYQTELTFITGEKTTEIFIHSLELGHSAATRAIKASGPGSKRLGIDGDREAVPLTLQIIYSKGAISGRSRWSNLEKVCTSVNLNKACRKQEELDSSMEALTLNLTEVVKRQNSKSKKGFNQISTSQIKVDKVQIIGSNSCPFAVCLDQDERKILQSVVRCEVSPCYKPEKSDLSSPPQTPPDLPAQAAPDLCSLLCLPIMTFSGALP
measurement-label: IC50 (µM)

A. O=C1NC(=S)SC1=Cc1ccc2c(c1)N(Cc1cccc(-c3ccccc3)c1)C(=O)CO2
B. Cc1cc(CN2C(=O)COc3ccc(C=C4SC(=S)NC4=O)cc32)n(C)n1
C. O=C1NC(=S)SC1=Cc1cc(Cl)c2c(c1)N(CCc1ccc(Cl)c(Cl)c1)C(=O)CO2
D. O=C1NC(=O)C(=Cc2ccc3c(c2)N(CC2CCCCC2)C(=O)CO3)S1
Which order do the items above take when sorted by IC50 from high to low? A ranking is expressed here by listing the labels in the requested order. B, C, A, D

1. NC(=O)c1ccc(CN2C(=O)COc3ccc(C=C4SC(=S)NC4=O)cc32)cc1
2. CC(C)(C)c1cccc(CN2C(=O)COc3ccc(C=C4SC(=S)NC4=O)cc32)c1
3. O=C1NC(=S)SC1=Cc1ccc2c(c1)N(OCc1ccc(Cl)c(Cl)c1)C(=O)CO2
Ranking field: IC50; order: falling. A ranking is expressed here by listing the labels in the requested order. 1, 2, 3
